- Assayed system: T1, IL-11 (UniProt P20809 22-199, limits assumed)
- T1 construct: also called IL-11 protein; IL-11 antigen
- T1 sequence (looked up): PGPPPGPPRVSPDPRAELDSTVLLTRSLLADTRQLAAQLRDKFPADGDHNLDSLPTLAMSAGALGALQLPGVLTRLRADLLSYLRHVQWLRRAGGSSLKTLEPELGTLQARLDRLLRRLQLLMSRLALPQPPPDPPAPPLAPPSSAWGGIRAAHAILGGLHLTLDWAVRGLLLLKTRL
- Experiment summary: SPR Biacore, scFv captured, IL-11 400 nM
- Protocol: The measure method included the steps of capturing the humanized single-chain antibody at a flow rate of 10 uL/min. […] Finally, the chip was regenerated with 10 mM glycine buffer.
Assay readout: kon (M⁻¹ s⁻¹)
Expressed in M⁻¹ s⁻¹, but write only the number.

// fetch kon given entry “VH4+VL1”-scFv (scFv) scFv: QVQLVQSGAEVKKPGASVKVSCKASDYTFTNYWLGWVRQAPGHGLEWIGHIYPGGGYTNYNEKFKGRATLTADTSTSTVYMELSSLRSEDTAVYFCARVRSGNDALDFWGQGTLVTVSSGGGGSGGGGSGGGGSEIVLTQSPATLSLSPGERATLSCRASESVDEYGISFMNWYQQKPGQAPRLLIYSASNQGSGIPARFSGSGSGTDFTLTISSLEPEDFAVYYCQQSKEVPWTFGGGTKLEIK
48900

// fetch kon given entry “VH4+VL4”-scFv (scFv) scFv: QVQLVQSGAEVKKPGASVKVSCKASDYTFTNYWLGWVRQAPGHGLEWIGHIYPGGGYTNYNEKFKGRATLTADTSTSTVYMELSSLRSEDTAVYFCARVRSGNDALDFWGQGTLVTVSSGGGGSGGGGSGGGGSEIVLTQSPATLSLSPGERATLSCRASESVDEYGISFMNWFQQKPGQAPRLLIYSASNQGSGIPARFSGSGSGTDFTLTISSLEPEDFAMYFCQQSKEVPWTFGGGTKLEIK
47900
